Measured inhibition at 1 µM by item
- measuredOn: human recombinant adrenergic α2B receptor (Homo sapiens, UniProt P18089)
- Construct: expressed in transfected cells; host or cells: Chinese hamster ovary (CHO-K1) cells
- Sequence (P18089 1-450): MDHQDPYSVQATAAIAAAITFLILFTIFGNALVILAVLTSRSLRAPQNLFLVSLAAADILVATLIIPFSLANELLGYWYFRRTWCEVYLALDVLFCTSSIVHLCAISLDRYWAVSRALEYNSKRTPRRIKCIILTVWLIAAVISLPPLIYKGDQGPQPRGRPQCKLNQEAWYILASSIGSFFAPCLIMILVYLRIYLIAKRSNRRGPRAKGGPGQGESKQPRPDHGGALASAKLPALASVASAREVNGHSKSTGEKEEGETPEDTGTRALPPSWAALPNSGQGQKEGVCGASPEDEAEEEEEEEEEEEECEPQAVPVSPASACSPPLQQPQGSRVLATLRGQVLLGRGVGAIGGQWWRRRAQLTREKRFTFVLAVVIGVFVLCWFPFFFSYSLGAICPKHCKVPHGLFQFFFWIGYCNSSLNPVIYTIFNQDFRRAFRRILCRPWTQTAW
- assayName: Adrenergic α2B radioligand binding assay ([3H]Rauwolscine)
- conditionDescription: compound at 1 μM; 2.5 nM [3H]Rauwolscine; CHO-K1 cells; read-out: Percent Inhibition of ligand binding, Adrenergic (1 μM) a2B
Write the value in % as a bare number.

inhibition at 1 µM reported for this molecule "Cc1ccc2c(c1)c1c(n2CC(=O)c2ccccc2)CCN(C)C1" : 59

Lab note: measured inhibition at 1 µM of "Cc1ccc2c(c1)c1c(n2CCc2ccc(C)nc2)CCN(CCCO)C1" was 39

get_value(item= "CN1CCc2c(c3cc(Cl)ccc3n2CC(=O)c2ccc(F)cc2)C1" , readout=inhibition at 1 µM) returns 87

Record "Cc1ccc2c(c1)c1c(n2CCc2ccc(CCCN)nc2)CCN(C)C1" , field inhibition at 1 µM: 63

Per the records, this molecule ( "Cc1ccc2c(c1)c1c(n2CCc2ccc(C)nc2)CCN(CCC#N)C1" ) has inhibition at 1 µM equal to 23

---

- measuredOn: rat adrenergic α1A receptor (Rattus norvegicus, UniProt P43140)
- Construct: from tissue; host or cells: Wistar Rat submaxillary glands
- Sequence (P43140 whole entry): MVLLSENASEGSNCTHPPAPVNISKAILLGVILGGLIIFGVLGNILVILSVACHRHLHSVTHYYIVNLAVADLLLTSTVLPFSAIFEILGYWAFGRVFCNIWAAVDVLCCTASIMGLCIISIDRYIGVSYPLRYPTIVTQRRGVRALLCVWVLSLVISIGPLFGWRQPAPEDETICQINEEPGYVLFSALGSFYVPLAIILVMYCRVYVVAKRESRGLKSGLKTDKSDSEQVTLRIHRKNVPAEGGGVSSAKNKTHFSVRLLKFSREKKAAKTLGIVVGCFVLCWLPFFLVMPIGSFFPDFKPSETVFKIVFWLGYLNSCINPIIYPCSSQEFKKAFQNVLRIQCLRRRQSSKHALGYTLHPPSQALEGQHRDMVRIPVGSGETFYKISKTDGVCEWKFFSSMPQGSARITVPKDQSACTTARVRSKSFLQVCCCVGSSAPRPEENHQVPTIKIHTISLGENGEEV
- assayName: Adrenergic α1A radioligand binding assay ([3H]Prozosin)
- conditionDescription: compound at 0.1 μM; 0.25 nM [3H]Prozosin; Wistar Rat submaxillary glands; read-out: Percent Inhibition of ligand binding, Adrenergic (0.1 μM) a1A
- Description: To evaluate in radioligand binding assays the activity of compounds of the invention, rat adrenergic α1A receptor obtained from Wistar Rat submaxillary glands (Michel, A. D. et al., Br. J. Pharmacol. 98:883, 1989) in a modified Tris-HCl buffer (50 mM Tris-HCl buffer, pH 7.4, 0.5 mM EDTA) is used. […] Receptor proteins are filtered and washed, the filters are then counted to determine [^3H]Prozosin specifically bound. […]
Some molecules, each annotated with its measured inhibition at 0.1 µM.
Only the number, expressed in %, is required.

In [3]: df
Out[3]:
                                   molecule  valuemeasured
0  Cc1ccc2c(c1)c1c(n2CCc2ccc(C)nc2)CCN(CC(F)(F)F)C1            -10

Here CN1CCc2c(c3cc(Cl)c(Cl)cc3n2CC(C)(O)c2ccncc2)C1 (stereo not shown) was tested on rat adrenergic α1A receptor (Rattus norvegicus, UniProt P43140), and its inhibition at 0.1 µM came to 0

The reported rat adrenergic α1A receptor (Rattus norvegicus, UniProt P43140) inhibition at 0.1 µM of "Cc1ccc2c(c1)c1c(n2CC(C)(C)c2ccncc2)CCN(C)C1" is 13

Form field inhibition at 0.1 µM for item "CC[C@@](O)(Cn1c2c(c3cc(C)ccc31)CN(C)CC2)c1ccncc1" on rat adrenergic α1A receptor (Rattus norvegicus, UniProt P43140): 10

Where do these numbers come from? They come from patent US9255094B2.
